Quick list: GI50 per entry.
Test system: RXF 393 renal
protocol_description: NCI tumour cell line growth inhibition, 48 h

Sample records with GI50:
# compound, system_name, result
rows = [
    ("Cc1ccc(-c2cc(C3=CC(=O)C=CC3=O)n(-c3ccc(S(N)(=O)=O)cc3)n2)cc1", "RXF 393 renal", "> 100 µM"),
    ("O=C(Cc1cccc(OC(F)(F)F)c1)Nc1ccc(CCCCc2nnc(NC(=O)Cc3ccccn3)s2)nn1", "RXF 393 renal", "4.34 µM"),
    ("CO[C@@H]1CC(=O)C2(CC(=O)O[C@@H]2/C=C(\\C)CCC=C(C)C)C[C@@H]1O (some centres undefined)", "RXF 393 renal", "0.818 µM"),
]

Suppose we examine the compound COc1ccc(Cl)cc1NC(=O)C(Br)C(Br)C(=O)O (centres undefined) ; what GI50 value has been reported?
18.8 µM
